- assayedSystem: T1, Human VE-PTP (HPTP-β) containing first eight FN3 repeats with C-terminal His6 tag (Human ½ VE-PTP ECD) (human, UniProt P23467 23-820)
- T1 construct: Produced in HEK293 cells and purified by the His tag; it was not cut off; also called Human Beta ½ ECD
- T1 sequence: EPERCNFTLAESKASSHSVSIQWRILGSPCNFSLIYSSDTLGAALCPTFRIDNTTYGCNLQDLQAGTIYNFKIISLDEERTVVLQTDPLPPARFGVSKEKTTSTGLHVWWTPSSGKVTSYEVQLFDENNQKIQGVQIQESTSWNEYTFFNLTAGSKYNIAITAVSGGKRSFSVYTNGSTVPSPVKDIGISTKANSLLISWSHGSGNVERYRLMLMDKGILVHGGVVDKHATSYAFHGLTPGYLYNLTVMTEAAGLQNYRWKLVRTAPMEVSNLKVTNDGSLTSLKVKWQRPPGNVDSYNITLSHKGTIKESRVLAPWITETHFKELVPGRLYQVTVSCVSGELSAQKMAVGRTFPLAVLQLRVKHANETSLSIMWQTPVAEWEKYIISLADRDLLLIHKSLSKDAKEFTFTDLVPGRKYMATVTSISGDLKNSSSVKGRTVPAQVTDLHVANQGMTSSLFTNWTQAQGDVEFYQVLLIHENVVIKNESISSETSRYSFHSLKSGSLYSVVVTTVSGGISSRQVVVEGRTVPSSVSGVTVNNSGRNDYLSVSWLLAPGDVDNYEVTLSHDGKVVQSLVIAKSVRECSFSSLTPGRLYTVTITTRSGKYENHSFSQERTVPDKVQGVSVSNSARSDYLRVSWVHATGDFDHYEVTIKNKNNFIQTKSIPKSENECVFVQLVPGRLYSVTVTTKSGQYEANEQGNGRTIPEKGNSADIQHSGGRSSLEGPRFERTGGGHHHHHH
- procedureDetails: ELISA, antigen coated at 1 µg/mL, antibody 1 µg/well
measuredProperty: ELISA value (absorbance at 450 nm)

>>> experimentalresult("humanized R15E6 variant HC2LC1 (antibody, human IgG4 S228P, kappa, V domains shown, Human IgG4 (S228P) / kappa, expressed in CHO cells; Signal peptides left out by range; also called VH2-VL1) VH: EVQLVESGGGLVQPGGSLRLSCAASGFTFNANAMNWVRQAPGKGLEWVGRIRTKSNNYATYYAGSVKDRFTISRDDSKNSLYLQMNSLKTEDTAVYYCVRDYYGSSAWITYWGQGTLVTVSS VL: DVVMTQSPSFLSASVGDRVTITCKASQHVGTAVAWYQQRPGKAPKLLIYWASTRHTGVPSRFSGSGSGTEFTLTISSLQPEDFATYFCQQYSSYPFTFGGGTKLEIKR")
1.81
>>> experimentalresult("humanized R15E6 variant HC1LC2 (antibody, human IgG4 S228P, kappa, V domains shown, Human IgG4 (S228P) / kappa, expressed in CHO cells; Signal peptides left out by range; also called VH1-VL2) VH: EVQLVESGGGLVQPGGSLKLSCAASGFTFNANAMNWVRQASGKGLEWVGRIRTKSNNYATYYAGSVKDRFTISRDDSKNTAYLQMNSLKTEDTAAYYCVRDYYGSSAWITYWGQGTLVTVSS VL: DIVMTQSPDSLAVSLGERATINCKASQHVGTAVAWYQQKPGQPPKLLIYWASTRHTGVPDRFSGSGSGTDFTLTISSLQAEDVAVYYCQQYSSYPFTFGQGTKLEIKR")
1.75
>>> experimentalresult("humanized R15E6 variant HC2LC2 (antibody, human IgG4 S228P, kappa, V domains shown, Human IgG4 (S228P) / kappa, expressed in CHO cells; Signal peptides left out by range; also called VH2-VL2) VH: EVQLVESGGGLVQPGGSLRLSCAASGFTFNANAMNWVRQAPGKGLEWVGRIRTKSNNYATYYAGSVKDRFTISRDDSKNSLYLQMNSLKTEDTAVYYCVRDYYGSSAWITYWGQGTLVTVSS VL: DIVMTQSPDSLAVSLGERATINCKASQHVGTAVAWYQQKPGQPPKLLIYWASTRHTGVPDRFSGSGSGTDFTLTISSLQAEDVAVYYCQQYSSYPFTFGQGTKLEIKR")
1.92
